- System: panel of HIV-1 isolates in human PBMCs
- test protocol: PBMC antiviral assay against a panel of HIV-1 isolates (RT activity)
- Assay type: cell-based
- measurement context: Human immunodeficiency virus 1, PBMC, isolate 93BR020, PBMC
value kind: pIC50
Scale: negative log10 of molar concentration, which is what pIC50 denotes.

Which pIC50 reading was recorded for the molecule C=C(C)[C@@H]1CC[C@]2(CCNCCN3CCS(=O)(=O)CC3)CC[C@]3(C)[C@H](CC[C@@H]4[C@@]5(C)CC[C@H](OC(=O)CC(C)(C)C(=O)O)C(C)(C)[C@@H]5CC[C@]43C)[C@@H]12 [Compound 51ee] ?
8.74

Which pIC50 reading was recorded for the molecule C=C(C)[C@@H]1CC[C@]2(CCNCCN3CCN(Cc4cccc(F)c4)CC3)CC[C@]3(C)[C@H](CC[C@@H]4[C@@]5(C)CC[C@H](OC(=O)CC(C)(C)C(=O)O)C(C)(C)[C@@H]5CC[C@]43C)[C@@H]12 [Compound 51m] ?
8.08

Which pIC50 reading was recorded for the molecule C=C(C)[C@@H]1CC[C@]2(CCNCCN3CCN(Cc4ccccc4)CC3)CC[C@]3(C)[C@H](CC[C@@H]4[C@@]5(C)CC[C@H](OC(=O)CC(C)(C)C(=O)O)C(C)(C)[C@@H]5CC[C@]43C)[C@@H]12 [Compound 51hh] ?
8.52

Which pIC50 reading was recorded for the molecule C=C(C)[C@@H]1CC[C@]2(CCNCCN3CCN(Cc4ccc(Cl)cc4)CC3)CC[C@]3(C)[C@H](CC[C@@H]4[C@@]5(C)CC[C@H](OC(=O)CC(C)(C)C(=O)O)C(C)(C)[C@@H]5CC[C@]43C)[C@@H]12 [Compound 51n] ?
7.89

Which pIC50 reading was recorded for the molecule C=C(C)[C@@H]1CC[C@]2(CCNCCN3CCN(Cc4ccc5ccccc5c4)CC3)CC[C@]3(C)[C@H](CC[C@@H]4[C@@]5(C)CC[C@H](OC(=O)CC(C)(C)C(=O)O)C(C)(C)[C@@H]5CC[C@]43C)[C@@H]12 [Compound 51r] ?
7.59

---

- Tested on: pNL4-3 SP1-V7A
- test protocol: CA-SP1 accumulation assay, SP1-V7A derivative
- Assay type: cell-based, HIV-1
- measurement context: 100 nM compound, HeLa or 293T cells
value kind: % CA-SP1 Accumulation 100 nM SP1 V7A

Which % CA-SP1 Accumulation 100 nM SP1 V7A reading was recorded for the compound C=C(C)[C@@H]1CC[C@]2(CCNCCC(=O)N3CCN(C)CC3)CC[C@]3(C)[C@H](CC[C@@H]4[C@@]5(C)CC[C@H](OC(=O)CC(C)(C)CC(=O)O)C(C)(C)[C@@H]5CC[C@]43C)[C@@H]12 [Compound 51b] ?
21.0%

Which % CA-SP1 Accumulation 100 nM SP1 V7A reading was recorded for the compound CN(C)CCCCNCC[C@]12CC[C@@H](C3(C)CC3)[C@@H]1[C@H]1CC[C@@H]3[C@@]4(C)CC[C@H](OC(=O)CC(C)(C)C(=O)O)C(C)(C)[C@@H]4CC[C@@]3(C)[C@]1(C)CC2 [Compound 51j] ?
6.4%

Which % CA-SP1 Accumulation 100 nM SP1 V7A reading was recorded for the compound C=C(C)[C@@H]1CC[C@]2(CCNCCCN3CCCC3=O)CC[C@]3(C)[C@H](CC[C@@H]4[C@@]5(C)CC[C@H](OC(=O)CC(C)(C)CC(=O)O)C(C)(C)[C@@H]5CC[C@]43C)[C@@H]12 [Compound 51a] ?
18.0%

Which % CA-SP1 Accumulation 100 nM SP1 V7A reading was recorded for the compound C=C(C)[C@@H]1CC[C@]2(CNCCCN3CCCC3)CC[C@]3(C)[C@H](CC[C@@H]4[C@@]5(C)CC[C@H](OC(=O)CC(C)(C)C(=O)O)C(C)(C)[C@@H]5CC[C@]43C)[C@@H]12 [Compound 51v] ?
26.9%

Which % CA-SP1 Accumulation 100 nM SP1 V7A reading was recorded for the compound C=C(C)[C@@H]1CC[C@]2(CCCNCCCN3CCCC3)CC[C@]3(C)[C@H](CC[C@@H]4[C@@]5(C)CC[C@H](OC(=O)CC(C)(C)C(=O)O)C(C)(C)[C@@H]5CC[C@]43C)[C@@H]12 [Compound 51aa] ?
14.4%

Which % CA-SP1 Accumulation 100 nM SP1 V7A reading was recorded for the compound C=C(C)[C@@H]1CC[C@]2(CCCNCCN3CCN(S(C)(=O)=O)CC3)CC[C@]3(C)[C@H](CC[C@@H]4[C@@]5(C)CC[C@H](OC(=O)CC(C)(C)C(=O)O)C(C)(C)[C@@H]5CC[C@]43C)[C@@H]12 [Compound 51cc] ?
19.3%

Which % CA-SP1 Accumulation 100 nM SP1 V7A reading was recorded for the compound C=C(C)[C@@H]1CC[C@]2(CNCCN3CCN(S(C)(=O)=O)CC3)CC[C@]3(C)[C@H](CC[C@@H]4[C@@]5(C)CC[C@H](OC(=O)CC(C)(C)C(=O)O)C(C)(C)[C@@H]5CC[C@]43C)[C@@H]12 [Compound 51x] ?
26.9%

Which % CA-SP1 Accumulation 100 nM SP1 V7A reading was recorded for the compound C=C(C)[C@@H]1CC[C@]2(CCNCCCN3CCN(CCO)CC3)CC[C@]3(C)[C@H](CC[C@@H]4[C@@]5(C)CC[C@H](OC(=O)CC(C)(C)CC(=O)O)C(C)(C)[C@@H]5CC[C@]43C)[C@@H]12 [Compound 51d] ?
20.4 (3) %

Which % CA-SP1 Accumulation 100 nM SP1 V7A reading was recorded for the compound C=C(C)[C@@H]1CC[C@]2(CCNCCCN3CCN(CCOC)CC3)CC[C@]3(C)[C@H](CC[C@@H]4[C@@]5(C)CC[C@H](OC(=O)CC(C)(C)CC(=O)O)C(C)(C)[C@@H]5CC[C@]43C)[C@@H]12 [Compound 51e] ?
23.1 (3) %

Which % CA-SP1 Accumulation 100 nM SP1 V7A reading was recorded for the compound C=C(C)[C@@H]1CC[C@]2(CCCNCCN3CCN(Cc4ccccc4)CC3)CC[C@]3(C)[C@H](CC[C@@H]4[C@@]5(C)CC[C@H](OC(=O)CC(C)(C)C(=O)O)C(C)(C)[C@@H]5CC[C@]43C)[C@@H]12 [Compound 51bb] ?
3.7%

Which % CA-SP1 Accumulation 100 nM SP1 V7A reading was recorded for the compound C=C(C)[C@@H]1CC[C@]2(CCNCCCN3CCN(S(C)(=O)=O)CC3)CC[C@]3(C)[C@H](CC[C@@H]4[C@@]5(C)CC[C@H](OC(=O)CC(C)(C)CC(=O)O)C(C)(C)[C@@H]5CC[C@]43C)[C@@H]12 [Compound 51c] ?
29.2 (3) %

Which % CA-SP1 Accumulation 100 nM SP1 V7A reading was recorded for the compound C=C(C)[C@@H]1CC[C@]2(CNCCN3CCN(Cc4ccccc4)CC3)CC[C@]3(C)[C@H](CC[C@@H]4[C@@]5(C)CC[C@H](OC(=O)CC(C)(C)C(=O)O)C(C)(C)[C@@H]5CC[C@]43C)[C@@H]12 [Compound 51w] ?
21.6%

Which % CA-SP1 Accumulation 100 nM SP1 V7A reading was recorded for the compound C=C(C)[C@@H]1CC[C@]2(CCNCCCN3CCCC3)CC[C@]3(C)[C@H](CC[C@@H]4[C@@]5(C)CC[C@H](OC(=O)CC(C)(C)C(=O)O)C(C)(C)[C@@H]5CC[C@]43C)[C@@H]12 [Compound 51z] ?
10.5%

Which % CA-SP1 Accumulation 100 nM SP1 V7A reading was recorded for the compound CN1CCN(CCCNCC[C@]23CC[C@@H](C4(C)CC4)[C@@H]2[C@H]2CC[C@@H]4[C@@]5(C)CC[C@H](OC(=O)CC(C)(C)C(=O)O)C(C)(C)[C@@H]5CC[C@@]4(C)[C@]2(C)CC3)CC1 [Compound 51i] ?
22.0%

Which % CA-SP1 Accumulation 100 nM SP1 V7A reading was recorded for the compound CC(C)(CC(=O)O[C@H]1CC[C@]2(C)[C@H]3CC[C@@H]4[C@H]5[C@H](C6(C)CC6)CC[C@]5(CCNCCN5CCCC5)CC[C@@]4(C)[C@]3(C)CC[C@H]2C1(C)C)C(=O)O [Compound 51h] ?
20.1%

Which % CA-SP1 Accumulation 100 nM SP1 V7A reading was recorded for the compound C=C(C)[C@@H]1CC[C@]2(CNCCN3CCS(=O)(=O)CC3)CC[C@]3(C)[C@H](CC[C@@H]4[C@@]5(C)CC[C@H](OC(=O)CC(C)(C)C(=O)O)C(C)(C)[C@@H]5CC[C@]43C)[C@@H]12 [Compound 51y] ?
28.1%
